FYI, the data here is from ChEMBL document CHEMBL5104195.

assay: in vitro; details: rat, liver microsomes
readoutKind: CLint scaled at 1 h, 1 µM (mL/min/kg)

1. Cc1nc(N[C@H](C)c2cccc(C(F)F)c2F)c2cc3c(cc2n1)OCC[C@H]1CN(CC(F)(F)F)CCN31	516

====

assay: Plasma protein binding in monkey at 2 uM preincubated for 1 hr by balanced dialysis based LC-MS/MS analysis; settings: rhesus monkey
# fraction unbound at 1 h, 2 µM values compiled below
readoutKind: fraction unbound at 1 h, 2 µM

1) Cc1nc(N[C@H](C)c2cccc(C(F)F)c2F)c2cc3c(cc2n1)OCC[C@H]1CN(CC(F)(F)F)CCN31	0.001
2) Cc1nc(N[C@H](C)c2cccc(C(F)F)c2F)c2cc3c(cc2n1)OCC[C@H]1CN(C(=O)[C@@H]2CCOC2)CCN31	0.001
3) Cc1nc(N[C@H](C)c2cccc(C(F)F)c2F)c2cc3c(cc2n1)OCC[C@H]1CN(c2ccnn2C)CCN31	0.015

====

target: Cytochrome P450 2D6 (Homo sapiens, UniProt P10635); experiment: Inhibition of CYP2D6 in human liver microsomes at 10 uM using dextromethorphan as substrate preincubated for 10 mins followed by NADPH addition by LC/MS analysis
Sequence (P10635 whole entry): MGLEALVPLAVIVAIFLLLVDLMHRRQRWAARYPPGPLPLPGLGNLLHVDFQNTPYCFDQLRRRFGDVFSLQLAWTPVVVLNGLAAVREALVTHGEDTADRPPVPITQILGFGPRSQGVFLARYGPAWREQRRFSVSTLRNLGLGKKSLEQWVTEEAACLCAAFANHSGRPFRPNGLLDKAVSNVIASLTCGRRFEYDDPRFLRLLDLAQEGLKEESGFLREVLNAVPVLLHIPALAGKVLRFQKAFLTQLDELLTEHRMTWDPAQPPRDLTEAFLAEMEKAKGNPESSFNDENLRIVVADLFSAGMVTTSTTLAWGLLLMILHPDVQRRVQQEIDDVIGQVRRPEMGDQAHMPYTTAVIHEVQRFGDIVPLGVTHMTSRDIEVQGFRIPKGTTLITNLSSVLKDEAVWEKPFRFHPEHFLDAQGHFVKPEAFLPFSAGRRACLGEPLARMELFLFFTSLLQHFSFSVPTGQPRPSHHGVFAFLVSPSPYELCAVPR
pIC50: −log10 of the molar value.
readoutKind: pIC50

1) Cc1nc(N[C@H](C)c2cccc(C(F)F)c2F)c2cc3c(cc2n1)OCC[C@H]1CN(CC(F)(F)F)CCN31	5.21

====

assay: Elimination rate constant in ICR mouse at 50 mg/kg, po measured up to 24 hrs by LC-MS/MS analysis; conditions: in vivo
readoutKind: k el at 24 h (s⁻¹)

1) Cc1nc(N[C@H](C)c2cccc(C(F)F)c2F)c2cc3c(cc2n1)OCC[C@H]1CN(C(=O)[C@@H]2CCOC2)CCN31	8.39e-05
2) Cc1nc(N[C@H](C)c2cccc(C(F)F)c2F)c2cc3c(cc2n1)OCC[C@H]1CN(c2ccnn2C)CCN31	7.36e-05
3) Cc1nc(N[C@H](C)c2cccc(C(F)F)c2F)c2cc3c(cc2n1)OCC[C@H]1CN(C)CCN31	9.78e-06
4) COCCN1CCN2c3cc4c(N[C@H](C)c5cccc(C(F)F)c5F)nc(C)nc4cc3OCC[C@H]2C1	2.64e-05
5) Cc1nc(N[C@H](C)c2cccc(C(F)F)c2F)c2cc3c(cc2n1)OCC[C@H]1CN(C(=O)c2cccnc2)CCN31	0.000135
6) Cc1nc(N[C@H](C)c2cccc(C(F)F)c2F)c2cc3c(cc2n1)OCC[C@H]1CN(CC(F)(F)F)CCN31	4.75e-05
7) Cc1nc(N[C@H](C)c2cccc(C(F)F)c2F)c2cc3c(cc2n1)OCC[C@H]1CN(CC2COC2)CCN31	2.61e-05
8) Cc1nc(N[C@H](C)c2cccc(C(F)F)c2F)c2cc3c(cc2n1)OCC[C@H]1CN(C(=O)C2COC2)CCN31	0.000142

====

test: MRT in ICR mouse at 50 mg/kg, po measured up to 24 hrs by LC-MS/MS analysis; conditions: in vivo
# MRT at 24 h values compiled below
readoutKind: MRT at 24 h (h)

1. COCCN1CCN2c3cc4c(N[C@H](C)c5cccc(C(F)F)c5F)nc(C)nc4cc3OCC[C@H]2C1	8.31
2. Cc1nc(N[C@H](C)c2cccc(C(F)F)c2F)c2cc3c(cc2n1)OCC[C@H]1CN(CC(F)(F)F)CCN31	5.5
3. Cc1nc(N[C@H](C)c2cccc(C(F)F)c2F)c2cc3c(cc2n1)OCC[C@H]1CN(c2ccnn2C)CCN31	4.47
4. Cc1nc(N[C@H](C)c2cccc(C(F)F)c2F)c2cc3c(cc2n1)OCC[C@H]1CN(C(=O)[C@@H]2CCOC2)CCN31	2.89
